target: UniProt:P00742
Sequence (P00742 41-179 limits assumed): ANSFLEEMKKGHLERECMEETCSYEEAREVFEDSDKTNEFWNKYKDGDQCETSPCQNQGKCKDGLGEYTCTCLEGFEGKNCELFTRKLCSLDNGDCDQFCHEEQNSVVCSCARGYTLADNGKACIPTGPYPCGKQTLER
Sequence (P00742 235-488 limits assumed): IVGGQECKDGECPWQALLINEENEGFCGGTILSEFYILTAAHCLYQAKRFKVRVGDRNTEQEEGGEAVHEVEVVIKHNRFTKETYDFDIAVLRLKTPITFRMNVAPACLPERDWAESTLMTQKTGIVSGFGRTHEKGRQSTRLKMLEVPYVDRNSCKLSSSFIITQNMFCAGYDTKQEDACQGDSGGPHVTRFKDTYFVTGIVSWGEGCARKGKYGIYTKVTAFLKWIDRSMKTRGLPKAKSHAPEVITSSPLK
MEASURED_ENDPOINT: pIC50
// scale note: pIC50 = -log10(conc_M); give the bare number

Task: Name the recorded pIC50 for `NC(=O)c1ccc(NC(=O)c2ccc(-n3ccccc3=O)cc2)c(NC(=O)c2ccc(Br)cc2)c1` .
Result: 7.59
